target: Integrin alpha-IIb/beta-3 (Homo sapiens, UniProt P05106+P08514); assay: Inhibition of 125 I-fibrinogen binding to ADP-activated gel filtered human platelets
Sequence (P05106 27-788 limits assumed): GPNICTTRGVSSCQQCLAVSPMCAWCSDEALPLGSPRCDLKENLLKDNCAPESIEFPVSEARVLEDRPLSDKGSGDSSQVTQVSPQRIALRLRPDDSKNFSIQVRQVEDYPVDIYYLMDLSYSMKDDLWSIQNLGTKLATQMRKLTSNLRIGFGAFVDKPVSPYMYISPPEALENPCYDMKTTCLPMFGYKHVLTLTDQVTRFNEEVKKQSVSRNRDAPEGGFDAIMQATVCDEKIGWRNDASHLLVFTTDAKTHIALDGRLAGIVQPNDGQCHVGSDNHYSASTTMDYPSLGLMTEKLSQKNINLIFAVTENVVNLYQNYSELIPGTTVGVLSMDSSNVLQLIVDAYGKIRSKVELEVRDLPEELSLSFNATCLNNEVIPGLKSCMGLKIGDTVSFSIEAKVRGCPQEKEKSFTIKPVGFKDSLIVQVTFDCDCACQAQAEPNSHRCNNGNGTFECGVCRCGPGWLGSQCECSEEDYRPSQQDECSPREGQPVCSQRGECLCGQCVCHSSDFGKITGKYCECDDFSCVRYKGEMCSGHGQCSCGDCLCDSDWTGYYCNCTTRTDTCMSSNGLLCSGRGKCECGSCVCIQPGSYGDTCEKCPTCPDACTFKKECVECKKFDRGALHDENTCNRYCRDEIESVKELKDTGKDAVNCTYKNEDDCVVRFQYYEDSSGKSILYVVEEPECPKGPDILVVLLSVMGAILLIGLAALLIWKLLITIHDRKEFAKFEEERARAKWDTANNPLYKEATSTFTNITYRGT
Sequence (P08514 32-887 limits assumed): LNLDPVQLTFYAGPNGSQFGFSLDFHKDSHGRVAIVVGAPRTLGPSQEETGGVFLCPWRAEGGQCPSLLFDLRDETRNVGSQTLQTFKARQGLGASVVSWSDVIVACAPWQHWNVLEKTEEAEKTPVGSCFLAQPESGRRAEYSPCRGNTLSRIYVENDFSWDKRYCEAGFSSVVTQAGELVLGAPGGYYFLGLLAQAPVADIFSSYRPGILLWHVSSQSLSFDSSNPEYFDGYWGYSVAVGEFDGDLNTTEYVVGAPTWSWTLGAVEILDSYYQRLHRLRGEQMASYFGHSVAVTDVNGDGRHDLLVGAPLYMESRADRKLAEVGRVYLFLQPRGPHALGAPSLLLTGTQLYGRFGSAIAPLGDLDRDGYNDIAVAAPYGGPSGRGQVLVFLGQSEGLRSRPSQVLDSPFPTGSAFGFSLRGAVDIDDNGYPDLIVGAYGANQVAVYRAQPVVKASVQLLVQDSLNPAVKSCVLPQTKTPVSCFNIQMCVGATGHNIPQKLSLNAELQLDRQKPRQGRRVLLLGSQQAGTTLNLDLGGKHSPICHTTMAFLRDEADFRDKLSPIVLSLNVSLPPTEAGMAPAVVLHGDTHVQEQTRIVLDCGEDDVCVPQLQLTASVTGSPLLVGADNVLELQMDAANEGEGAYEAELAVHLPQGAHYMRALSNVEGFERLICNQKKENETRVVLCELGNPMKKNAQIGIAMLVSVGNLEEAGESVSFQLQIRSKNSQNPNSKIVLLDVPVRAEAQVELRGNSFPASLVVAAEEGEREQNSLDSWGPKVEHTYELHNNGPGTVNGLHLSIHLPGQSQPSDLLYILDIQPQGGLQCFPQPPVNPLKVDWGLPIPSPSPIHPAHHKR
Sequence (P08514 891-1039 limits assumed): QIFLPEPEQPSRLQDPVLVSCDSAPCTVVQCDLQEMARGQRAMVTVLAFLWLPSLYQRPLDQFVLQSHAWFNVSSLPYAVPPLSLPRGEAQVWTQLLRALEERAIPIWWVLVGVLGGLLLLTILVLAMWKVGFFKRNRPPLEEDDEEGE
measurement.label: Ki

structure.as.smiles | result
N=C(N)NCCC[C@@H]1NC(=O)N(CC(=O)N[C@@H](CC(=O)O)C(=O)N[C@H](C(=O)O)c2ccccc2)C1=O | 120 nM

---

assay: terminal elimination half-life for the compound was evaluated after oral administration of a dose of 1 mg/kg in a group of eight conscious dogs; type: ADME, organism-based, Canis lupus familiaris; set-up: dose 1 mg/kg, route oral; details: dog, in vivo

compound | half-life / h
CCOC(=O)C[C@H](NC(=O)CN1C(=O)N[C@@](C)(c2ccc(C(=N)N)cc2)C1=O)c1ccccc1.O=C(O)/C=C\C(=O)O [CARAFIBAN MALEATE] | 9.9
